assay.system: ERα (Homo sapiens)
Construct: GeneBLAzer bla HEK 293T reporter line (Invitrogen)
Sequence (P03372 311-547 limits assumed): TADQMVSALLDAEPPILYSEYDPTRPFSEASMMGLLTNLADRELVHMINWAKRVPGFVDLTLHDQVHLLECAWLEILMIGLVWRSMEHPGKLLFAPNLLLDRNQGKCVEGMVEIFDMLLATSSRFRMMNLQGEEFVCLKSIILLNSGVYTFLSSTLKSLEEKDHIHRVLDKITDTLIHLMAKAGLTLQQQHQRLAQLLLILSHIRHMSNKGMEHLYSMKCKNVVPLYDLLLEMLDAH
procedure.details: GAL-LBD beta-lactamase reporter qHTS, HEK […], […] nm ratio
pEC50: −log10 of the molar value.
result.type: pEC50

[
  {
    "structure.as.smiles": "CCCc1c(-c2ccc(O)cc2)nn(-c2ccc(O)cc2)c1-c1ccc(O)cc1",
    "result.type": "pEC50",
    "number": 7.00
  }
]
